Provenance of the data: patent US10093660B2

- System tested: MNK1a (Homo sapiens (Human), UniProt Q9BUB5)
- Sequence (Q9BUB5 other isoform, or with tags, fused parts or gaps): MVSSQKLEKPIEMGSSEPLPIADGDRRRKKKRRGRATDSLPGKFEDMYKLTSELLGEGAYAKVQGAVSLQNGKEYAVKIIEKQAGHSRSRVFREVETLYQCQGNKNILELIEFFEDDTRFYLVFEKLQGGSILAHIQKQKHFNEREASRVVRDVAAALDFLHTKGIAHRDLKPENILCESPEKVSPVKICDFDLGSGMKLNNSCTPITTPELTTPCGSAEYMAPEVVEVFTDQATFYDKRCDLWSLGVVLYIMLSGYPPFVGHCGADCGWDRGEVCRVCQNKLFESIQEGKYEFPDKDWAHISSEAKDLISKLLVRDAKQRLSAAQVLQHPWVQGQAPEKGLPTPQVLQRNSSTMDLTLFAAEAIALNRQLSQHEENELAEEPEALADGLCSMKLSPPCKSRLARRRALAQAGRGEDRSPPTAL
- Experimental details: MNK1 in vitro kinase assay (Assay 3), Z'-LYTE
- Assay type: biochemical
- Stated conditions: compound concentration of 1 μM, read-out: MNK1 % INH
Readout label: inhibition at 1 µM (%)

Sample records with inhibition at 1 µM:
Prompt: Give its inhibition at 1 µM value. Item: Cc1cc(N=S2(=O)CCCC2)cc2ncnc(Nc3ccc(Cl)cc3O[C@@H]3COC[C@H]3O)c12 [Example 1.32]
Completion: 94

Prompt: Please answer likewise for Cc1cc(N=S2(=O)CCC2)cc2ncnc(Nc3ccc(Cl)cc3O[C@H]3COC[C@@H]3O)c12 [Example 1.29]
Completion: 100

Prompt: Please answer likewise for Cc1cc(N=S(C)(=O)c2cccnc2)cc2ncnc(Nc3ccc(F)cc3O[C@H]3COC[C@@H]3O)c12 (stereo partly drawn) [Example 2.81]
Completion: 91

[P] COc1cc(N=S(C)(=O)c2ccccc2)cc2ncnc(Nc3ccc(F)cc3O[C@H]3COC[C@H]3O)c12 (mixture of isomers) [Example 9.21]
[Q] CO[C@@H]1CN(S(C)(=O)=O)C[C@H]1Oc1cc(F)ccc1Nc1ncnc2cc(N=S(C)(C)=O)cc(C)c12 [Example 6.7]
Prompt: Which value of inhibition at 1 µM is smaller, the one for P or the one for Q ? Please respond with the label that marks your chosen entry.
Completion: Q
(Q: 35%, P: 84%)

[A] CO[C@@H]1COC[C@@H]1Oc1ncccc1Nc1ncnc2cc(N=S3(=O)CCCC3)cc(C)c12 (single isomer, unassigned) [Example 14.2]
[B] CO[C@@H]1CN(C(C)=O)C[C@H]1Oc1ncccc1Nc1ncnc2cc(N=S(C)(C)=O)cc(C)c12 [Example 6.3]
[C] CO[C@@H]1CN(C(=O)OCc2ccccc2)C[C@H]1Oc1cc(F)ccc1Nc1ncnc2cc(N=S(C)(C)=O)cc(C)c12 [Example 2.14]
Prompt: Endpoint returns the given compounds ordered by ascending inhibition at 1 µM. Please list the labels according to the requested order.
Completion: B, C, A
